experiment: Metabolic stability in mouse plasma assessed as compound remaining at 10 uM measured after 1 hrs by LC-MS analysis; type: ADME, cell-free
MEASUREMENT_LABEL: Stability (%)
Kindly answer with a numeric value in %, unit omitted.

# SMILES_STR, VAL
data = [
    ("C=C(CC(=O)OCOC(=O)OC(C)C)C(=O)O", 0),
    ("C=C(CC(=O)OCOC(=O)C(C)(C)C)C(=O)OC", 0),
    ("C=C(CC(=O)OCOC(=O)C(C)(C)C)C(=O)OCOC(=O)C(C)(C)C", 0),
    ("C=C(CC(=O)OC)C(=O)OCc1oc(=O)oc1C", 0),
    ("C=C(CC(=O)OCCCOCCCCCCCCCCCCCCCC)C(=O)O", 92),
    ("C=C(CC(=O)OCc1oc(=O)oc1C)C(=O)OC", 0),
]

Task: Given the entry C=C(CC(=O)OCCCOCCCCCCCCCCCCCCCC)C(=O)OC , report its measured Stability.
Output: 89

Task: Requested read-out: Stability. Entry: C=C(CC(=O)OCOC(=O)OC(C)C)C(=O)OCOC(=O)OC(C)C
Output: 0

Task: Report Stability for C=C(CC(=O)OC)C(=O)OCOC(=O)C(C)(C)C please.
Output: 0

Task: Name the recorded Stability for C=C(CC(=O)OCOC(=O)C(C)(C)C)C(=O)O .
Output: 3

Task: Record request: Stability value, item C=C(CC(=O)OC)C(=O)OCCCOCCCCCCCCCCCCCCCC
Output: 44

Task: Which Stability value belongs to C=C(CC(=O)OCc1oc(=O)oc1C)C(=O)OCc1oc(=O)oc1C ?
Output: 0

* * *

Known Stability of a selection of compounds
assay: Chemical stability in pH 7.4 assessed as compound remaining at 10 uM measured after 1 hrs by LC-MS/MS analysis; format: physicochemical; conditions: buffer, pH 7.4, 1 h
Respond numerically; units are % and should not be typed.

Answered examples (8):
# SMILES_STR, UNIT_ANNOTATION, VAL
measured = [
    ("C=C(CC(=O)OCCCOCCCCCCCCCCCCCCCC)C(=O)O", "%", 65),
    ("C=C(CC(=O)OC)C(=O)OCCCOCCCCCCCCCCCCCCCC", "%", 75),
    ("C=C(CC(=O)OCOC(=O)C(C)(C)C)C(=O)OCOC(=O)C(C)(C)C", "%", 104),
    ("C=C(CC(=O)OC)C(=O)OCOC(=O)OC(C)C", "%", 102),
    ("C=C(CC(=O)OC)C(=O)OCOC(=O)C(C)(C)C", "%", 94),
    ("C=C(CC(=O)OCc1oc(=O)oc1C)C(=O)OCc1oc(=O)oc1C", "%", 91),
    ("C=C(CC(=O)OCc1oc(=O)oc1C)C(=O)OC", "%", 69),
    ("C=C(CC(=O)OCOC(=O)C(C)(C)C)C(=O)OC", "%", 86),
]

Task: Look up Stability: C=C(CC(=O)OCOC(=O)OC(C)C)C(=O)OCOC(=O)OC(C)C
Output: 47

Task: Would you kindly share the measured Stability for C=C(CC(=O)OCOC(=O)OC(C)C)C(=O)O ?
Output: 44

Task: Entry C=C(CC(=O)OC)C(=O)OCc1oc(=O)oc1C has what Stability?
Output: 99

Task: # lookup: Stability of C=C(CC(=O)OCOC(=O)OC(C)C)C(=O)OC
Output: 63

* * *

assay: Metabolic stability in mouse plasma assessed as compound remaining at 10 uM measured after 1 hrs by LC-MS analysis; assay type: ADME, cell-free
MEASUREMENT_LABEL: Stability (%)
Provide the reading as a plain figure in %.

Study these solved cases before continuing.
# SMILES_STR, Stability (%)
data = [
    ("C=C(CC(=O)OCc1oc(=O)oc1C)C(=O)O", 20),
    ("C=C(CC(=O)OCOC(=O)OC(C)C)C(=O)OC", 0),
]

We now examine a further compound.
Task: Requested read-out: Stability. Entry: C=C(CC(=O)OC)C(=O)OCOC(=O)OC(C)C
Output: 0

* * *

assay: Metabolic stability in human skin homogenate assessed as compound remaining at 10 uM measured after 1 hrs by LC-MS analysis; type: ADME, tissue-based, Skin of body; conditions: tissue homogenate
Stability values for the compounds below.

Example compounds with recorded Stability:
# SMILES_STR, VAL
records = [
    ("C=C(CC(=O)OCc1oc(=O)oc1C)C(=O)OC", "56%"),
    ("C=C(CC(=O)OC)C(=O)OCOC(=O)C(C)(C)C", "15%"),
    ("C=C(CC(=O)OCOC(=O)C(C)(C)C)C(=O)OCOC(=O)C(C)(C)C", "0%"),
]

Task: What Stability value was documented for this compound, C=C(CC(=O)OC)C(=O)OCCCOCCCCCCCCCCCCCCCC ?
Output: 94%

Task: Would you kindly share the measured Stability for C=C(CC(=O)OCOC(=O)C(C)(C)C)C(=O)OC ?
Output: 9.4%

Task: Dear colleague, I am looking for the recorded Stability of the following compound: C=C(CC(=O)OCOC(=O)OC(C)C)C(=O)OCOC(=O)OC(C)C
Output: 1.1%

Task: What measured Stability goes with C=C(CC(=O)OCc1oc(=O)oc1C)C(=O)OCc1oc(=O)oc1C ?
Output: 30%

* * *

test: Metabolic stability in human plasma assessed as compound remaining at 10 uM measured after 1 hrs by LC-MS analysis; format: ADME, cell-free
MEASUREMENT_LABEL: Stability
Write the figure, then the unit, nothing else.

# SMILES_STR, Stability
records = [
    ("C=C(CC(=O)OCCCOCCCCCCCCCCCCCCCC)C(=O)O", "68%"),
    ("C=C(CC(=O)OCc1oc(=O)oc1C)C(=O)OCc1oc(=O)oc1C", "0%"),
    ("C=C(CC(=O)OCOC(=O)OC(C)C)C(=O)OC", "0%"),
    ("C=C(CC(=O)OCOC(=O)C(C)(C)C)C(=O)OC", "0%"),
    ("C=C(CC(=O)OC)C(=O)OCOC(=O)OC(C)C", "0%"),
]

Please examine the following record next.
Task: State the recorded Stability for this entry: C=C(CC(=O)OCc1oc(=O)oc1C)C(=O)O
Output: 0%

* * *

experiment: Chemical stability in pH 1.2 assessed as compound remaining at 10 uM measured after 1 hrs by LC-MS/MS analysis; assay type: physicochemical; settings: buffer, pH 1.2, 1 h
MEASUREMENT_LABEL: Stability (%)
Give a bare numeral; the unit % is implied.

Reference set (4 entries):
# SMILES_STR, Stability / %
data = [
    ("C=C(CC(=O)OCc1oc(=O)oc1C)C(=O)OC", 100),
    ("C=C(CC(=O)OCOC(=O)OC(C)C)C(=O)OCOC(=O)OC(C)C", 104),
    ("C=C(CC(=O)OC)C(=O)OCOC(=O)C(C)(C)C", 99),
    ("C=C(CC(=O)OCOC(=O)C(C)(C)C)C(=O)OCOC(=O)C(C)(C)C", 106),
]

Task: I am curious: what Stability value has been reported for C=C(CC(=O)OCc1oc(=O)oc1C)C(=O)OCc1oc(=O)oc1C ?
Output: 102

Task: Which value of Stability has been reported for C=C(CC(=O)OCOC(=O)OC(C)C)C(=O)O in the records?
Output: 104

Task: What value of Stability has been recorded for this entry: C=C(CC(=O)OC)C(=O)OCCCOCCCCCCCCCCCCCCCC
Output: 103

Task: // lookup Stability for C=C(CC(=O)OCOC(=O)C(C)(C)C)C(=O)O
Output: 100

Task: Which measured Stability value corresponds to C=C(CC(=O)OCCCOCCCCCCCCCCCCCCCC)C(=O)O ?
Output: 91
